- experimental-target: ATP-dependent translocase ABCB1 (Homo sapiens, UniProt P08183)
- Sequence (P08183 whole entry): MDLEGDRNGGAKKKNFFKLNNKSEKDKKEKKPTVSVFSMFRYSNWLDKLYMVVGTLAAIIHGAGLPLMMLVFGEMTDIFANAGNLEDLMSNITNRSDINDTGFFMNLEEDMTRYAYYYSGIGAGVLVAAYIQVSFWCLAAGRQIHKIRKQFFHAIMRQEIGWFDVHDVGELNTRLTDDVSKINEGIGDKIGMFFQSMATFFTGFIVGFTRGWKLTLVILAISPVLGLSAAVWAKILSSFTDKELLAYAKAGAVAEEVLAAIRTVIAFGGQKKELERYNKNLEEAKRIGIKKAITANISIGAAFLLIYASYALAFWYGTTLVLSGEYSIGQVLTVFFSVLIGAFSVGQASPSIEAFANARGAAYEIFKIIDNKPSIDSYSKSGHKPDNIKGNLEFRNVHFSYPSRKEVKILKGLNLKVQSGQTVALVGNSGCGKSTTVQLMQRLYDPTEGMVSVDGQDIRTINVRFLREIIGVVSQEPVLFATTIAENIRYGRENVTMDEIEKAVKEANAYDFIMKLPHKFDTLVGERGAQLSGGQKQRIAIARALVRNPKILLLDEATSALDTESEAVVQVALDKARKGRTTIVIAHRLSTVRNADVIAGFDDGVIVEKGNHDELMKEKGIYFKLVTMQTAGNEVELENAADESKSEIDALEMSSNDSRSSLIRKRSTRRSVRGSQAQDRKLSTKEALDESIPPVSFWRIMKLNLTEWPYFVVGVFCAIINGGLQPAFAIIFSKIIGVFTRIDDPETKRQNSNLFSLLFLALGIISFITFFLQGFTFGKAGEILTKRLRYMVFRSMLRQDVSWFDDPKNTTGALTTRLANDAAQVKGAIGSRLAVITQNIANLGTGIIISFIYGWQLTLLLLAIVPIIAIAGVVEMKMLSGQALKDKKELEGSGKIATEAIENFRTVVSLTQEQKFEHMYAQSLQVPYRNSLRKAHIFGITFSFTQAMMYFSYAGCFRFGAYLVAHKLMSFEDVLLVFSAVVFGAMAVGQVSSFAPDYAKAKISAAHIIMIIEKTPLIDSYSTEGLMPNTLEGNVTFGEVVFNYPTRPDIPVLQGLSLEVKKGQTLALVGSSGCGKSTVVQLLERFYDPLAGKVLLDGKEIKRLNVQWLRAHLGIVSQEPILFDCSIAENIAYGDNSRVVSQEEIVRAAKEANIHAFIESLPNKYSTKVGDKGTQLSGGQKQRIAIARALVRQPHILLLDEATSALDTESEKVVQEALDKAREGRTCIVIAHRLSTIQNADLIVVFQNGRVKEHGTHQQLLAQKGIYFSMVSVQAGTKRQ
- experiment: Inhibition of ABCB1 in human A2780/ADR cells assessed as reduction in calcien-AM efflux preincubated for 30 mins followed by calcien-AM addition measured immediately at 60 sec time interval for 60 mins by fluorescence assay
- Assay type: cell-based
quantity-measured: IC50 (µM)

P. O=C(Nc1ccccc1-c1nnn(-c2ccccc2)n1)c1ccccc1
Q. COc1ccc(-n2nnc(-c3ccccc3NC(=O)c3ccccc3)n2)cc1OC
R. COc1ccc(-n2nnc(-c3ccccc3NC(=O)c3ccc(C(F)(F)F)cc3)n2)cc1OC
Ask: Endpoint returns the given compounds ordered by ascending IC50. Please list the labels in the order you were asked to rank them.
Result: Q, R, P
(Q: 4.03 µM, R: 10.2 µM, P: 21.8 µM)

a. COc1ccc(C(=O)Nc2ccccc2-c2nnn(-c3ccc(C(C)C)cc3)n2)cc1
b. CCCc1ccc(C(=O)Nc2ccccc2-c2nnn(-c3ccccc3)n2)cc1
Ask: Could you please tell me which of these two has the higher IC50: a or b ? Mark your answer with the label of the selected entry.
Result: a
(a: 19.4 µM, b: 8.14 µM)

====

- experimental-target: Broad substrate specificity ATP-binding cassette transporter ABCG2 (Homo sapiens, UniProt Q9UNQ0)
- Sequence (Q9UNQ0 whole entry): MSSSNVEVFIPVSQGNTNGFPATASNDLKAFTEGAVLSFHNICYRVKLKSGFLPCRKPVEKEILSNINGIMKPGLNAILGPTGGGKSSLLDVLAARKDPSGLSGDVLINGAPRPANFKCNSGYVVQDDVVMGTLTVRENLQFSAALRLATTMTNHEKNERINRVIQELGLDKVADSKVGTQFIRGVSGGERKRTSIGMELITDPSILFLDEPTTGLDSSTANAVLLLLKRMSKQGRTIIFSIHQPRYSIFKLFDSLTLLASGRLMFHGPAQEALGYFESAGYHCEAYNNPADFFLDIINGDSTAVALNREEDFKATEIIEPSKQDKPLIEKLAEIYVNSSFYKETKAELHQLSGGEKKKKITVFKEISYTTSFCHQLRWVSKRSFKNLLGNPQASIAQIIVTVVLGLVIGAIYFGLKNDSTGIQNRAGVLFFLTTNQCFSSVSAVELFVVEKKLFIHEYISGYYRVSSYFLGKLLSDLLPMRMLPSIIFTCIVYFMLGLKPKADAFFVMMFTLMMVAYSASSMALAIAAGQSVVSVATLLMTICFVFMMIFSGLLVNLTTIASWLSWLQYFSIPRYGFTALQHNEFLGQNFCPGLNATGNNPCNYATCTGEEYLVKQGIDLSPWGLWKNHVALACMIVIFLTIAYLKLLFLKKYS
- experiment: Inhibition of recombinant human GFP-fused ABCG2 expressed in MDCK2 cells assessed as reduction in pheophorbide A efflux preincubated for 30 mins followed by pheophorbide A addition measured after 2 hrs by flow cytometry
- Assay type: cell-based, MDCK-II
pIC50: −log10 of the molar value.
quantity-measured: pIC50

{"smiles-code": "CCCc1ccc(C(=O)Nc2ccccc2-c2nnn(-c3ccc(O)cc3)n2)cc1", "pIC50": 6.89}
{"smiles-code": "COc1ccc(C(=O)Nc2ccccc2-c2nnn(-c3ccc(SC)cc3)n2)cc1", "pIC50": 6.60}
{"smiles-code": "COc1ccc(C(=O)Nc2ccccc2-c2nnn(-c3ccccc3)n2)cc1OC", "pIC50": 6.29}
{"smiles-code": "COc1ccc(-n2nnc(-c3ccccc3NC(=O)c3cccc([N+](=O)[O-])c3)n2)cc1", "pIC50": 6.61}
{"smiles-code": "COc1ccc(C(=O)Nc2ccccc2-c2nnn(-c3ccc(C(C)C)cc3)n2)cc1", "pIC50": 6.88}
{"smiles-code": "O=C(Nc1ccccc1-c1nnn(-c2ccccc2)n1)c1ccccc1[N+](=O)[O-]", "pIC50": 6.34}

a. CCCc1ccc(C(=O)Nc2ccccc2-c2nnn(-c3ccc(SC)cc3)n2)cc1
b. O=C(Nc1ccccc1-c1nnn(-c2ccccc2)n1)c1ccc([N+](=O)[O-])cc1
c. O=C(Nc1ccccc1-c1nnn(-c2ccccc2)n1)c1ccccc1
d. O=C(Nc1ccccc1-c1nnn(-c2ccccc2)n1)c1ccc(C(F)(F)F)cc1
e. O=C(Nc1ccccc1-c1nnn(-c2ccccc2)n1)c1cccc([N+](=O)[O-])c1
Ask: Put these in order: smallest pIC50 first, largest last. Please list the labels in the order you were asked to rank them.
Result: d, a, b, e, c
(d: 5.44, a: 6.17, b: 6.49, e: 6.91, c: 7.19)

P. COc1ccc(-n2nnc(-c3ccccc3NC(=O)c3ccccc3[N+](=O)[O-])n2)cc1
Q. CCCc1ccc(C(=O)Nc2ccccc2-c2nnn(-c3ccccc3)n2)cc1
Ask: // select label with min value of measured pIC50 from [ P , Q ] Mark your answer with the label of the selected entry.
Result: P

a. COc1ccc(C(=O)Nc2ccccc2-c2nnn(-c3ccc(OC)cc3)n2)cc1
b. CSc1ccc(-n2nnc(-c3ccccc3NC(=O)c3ccccc3[N+](=O)[O-])n2)cc1
Ask: Could you please tell me which of these two has the higher pIC50: a or b ? Mark your answer with the label of the selected entry.
Result: b

These data points were gathered from ChEMBL document CHEMBL3875173.
